Where these numbers come from: PubChem BioAssay AID602399

- Test system: Nicotinate-nucleotide adenylyltransferase NadD (Staphylococcus aureus N315)
- method-description: inhibitors of S. aureus NadD, primary screen, biochemical, colorimetric, uHTS (AID 602399)
- run-conditions: purified NadD enzyme, colorimetric absorbance read-out; at 20 µM; hits give high values
Screen size: about 360,000 compounds; about 2,800 (0.78%) were called active. The sample holds actives, similar compounds and a random draw of the others, so the mix is not that of the screen.
Kindly supply the reported inhibition values for the records listed here.
Use % as the unit, but write only the number.

Find the recorded inhibition belonging to N#C/C(C(=O)N1CCOCC1)=C1/SC(Cc2ccc(F)cc2)C(=O)N1c1ccccc1 (configuration not stated) and report it.
5.64

Find the recorded inhibition belonging to Cc1cc(=O)[nH]c(SCc2ccc(Cl)cc2)n1 and report it.
-4.15

Find the recorded inhibition belonging to CC(=O)N/C(=N/c1nc(C)cc(C)n1)Nc1ccc(F)cc1F and report it.
-3.78

Find the recorded inhibition belonging to O=C1CSC(=S)N1/N=C/c1ccc(O)c([N+](=O)[O-])c1 and report it.
5.51

Find the recorded inhibition belonging to NNC(=O)c1cccc(COCC(F)(F)C(F)F)c1 and report it.
10.9

Find the recorded inhibition belonging to C/C(=N\NC(=O)c1ccc(NS(=O)(=O)c2cccs2)cc1)c1ccc2ccccc2c1 and report it.
11.2

Find the recorded inhibition belonging to CCCn1nnnc1NC(=O)COc1ccc(Cl)cc1C and report it.
8.48

Find the recorded inhibition belonging to CCOC(=O)N1CCN(S(=O)(=O)c2cc3c(cc2C)NC(=O)CO3)CC1 and report it.
6.26

Find the recorded inhibition belonging to Cc1[nH]c2ccccc2c1SCC(=O)Nc1nccs1 and report it.
-2.1

Find the recorded inhibition belonging to CC(=O)c1c(C)[nH]c(C(=O)OCC(=O)Nc2sc3c(c2C#N)CCCC3)c1C and report it.
6.3

Find the recorded inhibition belonging to O=C(Nc1ccc(NC(=O)c2cccs2)cc1)c1ccc2ccccc2c1 and report it.
34.4

Find the recorded inhibition belonging to COC(=O)c1cccc(N(CC(=O)NCC2CCCO2)C(=O)CCC(=O)Nc2cc(C)on2)c1 (configuration not stated) and report it.
-10.6

Find the recorded inhibition belonging to COC(=O)c1sccc1NC(=O)CC1C(=O)NCCN1C(=O)Nc1ccc(F)cc1F (configuration not stated) and report it.
-5.08

Find the recorded inhibition belonging to Nc1nonc1-n1nnc(C(=O)N/N=C/c2cc(Br)ccc2O)c1CSC1=NCCS1 and report it.
37.3

Find the recorded inhibition belonging to N#CCC(=O)Nc1ccc(C(=O)OCC(=O)Nc2sc3c(c2C#N)CCCC3)cc1 and report it.
32.6

Find the recorded inhibition belonging to CCOc1ccc(NC(=O)c2ccc(NC(=O)COC(=O)c3ccc(NC(=O)CC#N)cc3)cc2)cc1 and report it.
39.8

Find the recorded inhibition belonging to C#CCOCCOCCOCCNc1nc(N2CCN(C(=O)C([C@@H](C)O)n3cc([C@@H](N)CCCCN)nn3)CC2)nc(N2CCN(C(=O)[C@H](CCCCN)n3cc(CN)nn3)CC2)n1 (some centres not stated) and report it.
-6.21
